# Test system: Puccinia recondita f. sp. tritici
# Procedure Details: Test H: wheat leaf rust, test suspension sprayed after inoculation of wheat seedlings, visual disease rating
# Format: in vivo
# Measurement Context: Puccinia recondita, 96 h; 200 ppm; 100 = 100% disease control, 0 = no control relative to controls

{"columns": ["Compound", "pest or weed control at 200 ppm / %"],
 "data": [
  ["COc1ccc(F)c(-c2c(C)nc(C)n2-c2ccc(F)cc2)c1F [Compound 549]", 0],
  ["COc1cc(OC)cc(-n2cnc(C)c2-c2c(F)cc(OC)cc2F)c1 [Compound 632]", 99],
  ["COC(=O)Cc1nc(Br)c(-c2c(F)cccc2F)n1-c1ccc(Cl)cc1 [Compound 544]", 9],
  ["Cc1nn(C)c(Cc2ccc(F)cc2F)c1-c1ccc(F)cc1Cl [Compound 313]", 95],
  ["COc1cc(F)c(-c2c(Cl)nc(CO)n2-c2ccc(F)cc2)c(F)c1 [Compound 298]", 0],
  ["O=C(O)Cc1nc(Br)c(-c2c(F)cccc2F)n1-c1ccc(Cl)cc1 [Compound 570]", 0],
  ["COc1ccc(F)c(-c2c(Br)nc(Br)n2-c2ccc(F)cc2)c1F [Compound 504]", 0],
  ["CNC(=O)Cc1nc(Br)c(-c2c(F)cccc2F)n1-c1ccc(Cl)cc1 [Compound 571]", 0],
  ["COc1cc(F)c(-c2c(Cl)nc(Br)n2-c2ccc(C(F)(F)F)nc2)c(F)c1 [Compound 707]", 67],
  ["N#Cc1ccc(F)c(-c2c(Cl)ncn2-c2ccc(Cl)cc2)c1F [Compound 386]", 0],
  ["N#Cc1ccc(F)c(-c2c(Cl)nc(Br)n2-c2ccc(Cl)cc2)c1F [Compound 419]", 0],
  ["Cc1nc(Cl)c(-c2c(F)ccc(C#N)c2F)n1-c1ccc(Cl)cc1 [Compound 430]", 0],
  ["COc1cc(F)c(-c2c(Cl)nc(CF)n2-c2ccc(F)cc2)c(F)c1 [Compound 331]", 85],
  ["Cc1ccc(-n2c(C)nc(Cl)c2-c2c(F)cc(O)cc2F)cc1 [Compound 624]", 0],
  ["Fc1cccc(F)c1-c1c(Br)nc(CCBr)n1-c1ccc(Cl)cc1 [Compound 475]", 0],
  ["N#CCc1nc(Br)c(-c2c(F)cccc2F)n1-c1ccc(Cl)cc1 [Compound 509]", 9],
  ["C=Cc1nc(Cl)c(-c2c(F)ccc(OC)c2F)n1-c1cccc(OC(F)F)c1 [Compound 583]", 0],
  ["COc1cc(F)c(-c2c(Cl)nc(C=NO)n2-c2ccc(F)cc2)c(F)c1 [Compound 349]", 0],
  ["COc1cc(F)c(-c2c(Cl)nc(C)n2-c2ccc(C(F)(F)F)nc2)c(F)c1 [Compound 713]", 78]
]}
